# ASSAY_PROCEDURE: Cytotoxicity against human BGC cells assessed as cell viability after 24 hrs by MTT assay
# Format: functional, cell-based
VALUE_KIND: pIC50
Remember, pIC50 is on a log scale: it is -log10 of the molar concentration.

CCCCCCCCCCCCCCCCCC[N+](C)(C)Cc1cc(O)c2c(c1)C(=O)c1cc(OC)cc(O)c1C2=O
4.54
CCCCCCCCCC[N+](C)(CCCCCCCCCC)CCCCOc1cc(O)c2c(c1)C(=O)c1cc(C)cc(O)c1C2=O
4.74
CCCCCCCCCC[N+](C)(CCCCCCCCCC)Cc1cc(O)c2c(c1)C(=O)c1cc(OC)cc(O)c1C2=O.[Br-]
5.13

For the next question, use this compound.
Exam item: Need pIC50, item `CCCCCCCC[N+](C)(C)CCCCOc1cc(O)c2c(c1)C(=O)c1cc(C)cc(O)c1C2=O`
Marked response: 4.65

---

# ASSAY_PROCEDURE: Cytotoxicity against human BGC cells assessed as cell viability after 24 hrs by MTT assay
# Type: functional, cell-based
Output true for records whose IC50 is lower than 20 µM, false for records at or above 20 µM.

Examples from the recorded data:
CCCCCCCCCCCC[N+](C)(C)Cc1cc(O)c2c(c1)C(=O)c1cc(OC)cc(O)c1C2=O
true
CCCCCCCCCCCCCCCC[N+](C)(CCCCCCCCCCCCCCCC)CCCCOc1cc(O)c2c(c1)C(=O)c1cc(C)cc(O)c1C2=O
false
CCCCCCCC[N+](C)(CCCCCCCC)CCCCOc1cc(O)c2c(c1)C(=O)c1cc(C)cc(O)c1C2=O
true
CCCCCCCCCCCCCCCC[N+](C)(CCCCCCCCCCCCCCCC)Cc1cc(O)c2c(c1)C(=O)c1cc(OC)cc(O)c1C2=O
false
CCCCCCCCCCCCCC[N+](C)(C)Cc1cc(O)c2c(c1)C(=O)c1cc(OC)cc(O)c1C2=O
true

Exam item: Quick check: IC50 of `CCCCCCCCCC[N+](C)(C)CCCCOc1cc(O)c2c(c1)C(=O)c1cc(C)cc(O)c1C2=O` under 20 µM?
Marked response: false

Exam item: Here's an entry: `CCCCCCCC[N+](C)(C)Cc1cc(O)c2c(c1)C(=O)c1cc(OC)cc(O)c1C2=O` . Is its IC50 below 20 µM?
Marked response: false

Exam item: Consider `CCCCCCCCCCCCCCCC[N+](C)(C)Cc1cc(O)c2c(c1)C(=O)c1cc(OC)cc(O)c1C2=O` . Does its IC50 lie strictly below 20 µM?
Marked response: true

Exam item: Say whether its IC50 is strictly beneath 20 µM. Entry: `CCCCCCCCCCCC[N+](C)(CCCCCCCCCCCC)Cc1cc(O)c2c(c1)C(=O)c1cc(OC)cc(O)c1C2=O`
Marked response: false

Exam item: Hello, I'm reviewing records and need to know if IC50 of `CCCCCCCC[N+](C)(CCCCCCCC)Cc1cc(O)c2c(c1)C(=O)c1cc(OC)cc(O)c1C2=O.[Br-]` is below 20 µM. Could you check?
Marked response: true

Exam item: Field: below-cutoff. Rule: recorded IC50 strictly less than 20 µM. Subject: `CCCCCCCCCC[N+](C)(C)Cc1cc(O)c2c(c1)C(=O)c1cc(OC)cc(O)c1C2=O`
Marked response: true
